- ASSAY_REMARKS: Tmax in mouse liver at 50 mg/kg, po
- Type: ADME, organism-based
OUTCOME_MEASURE: Tmax (h)
Express your answer in h, writing the number without its unit.

Tell me measured Tmax for CC(C)O[P@@]1(=O)OC[C@H]2O[C@@H](n3ccc(=O)[nH]c3=O)[C@@]3(CCO3)[C@@H]2O1 please.
1

* * *

- ASSAY_REMARKS: Half life in mouse liver at 50 mg/kg, po
- Format: ADME, organism-based
OUTCOME_MEASURE: half-life (h)
Express your answer in h, writing the number without its unit.

Tell me measured half-life for CC(C)O[P@@]1(=O)OC[C@H]2O[C@@H](n3ccc(=O)[nH]c3=O)[C@@]3(CCO3)[C@@H]2O1 please.
2.1

* * *

- ASSAY_REMARKS: Ratio of AUC (0 to last) in mouse liver to AUC (0 to last) in mouse plasma
- Type: ADME
OUTCOME_MEASURE: Kp

Tell me measured Kp for CC(C)O[P@@]1(=O)OC[C@H]2O[C@@H](n3ccc(=O)[nH]c3=O)[C@@]3(CCO3)[C@@H]2O1 please.
0.57

* * *

- ASSAY_REMARKS: Cytotoxicity against human HuH7-CMV-Luc cells assessed as reduction in cell proliferation after 3 days by 5-bromo-2'-deoxyuridine incorporation assay
- Format: cell-based, Huh-7
OUTCOME_MEASURE: CC50 at 72 h

Tell me measured CC50 at 72 h for CC(C)O[P@@]1(=O)OC[C@H]2O[C@@H](n3ccc(=O)[nH]c3=O)[C@@]3(CCO3)[C@@H]2O1 please.
> 100 µM

Tell me measured CC50 at 72 h for CCOc1nc(N)nc2c1ncn2[C@@H]1O[C@@H]2CO[P@](=O)(OC(C)C)O[C@H]2[C@@]1(C)F please.
> 100 µM

Tell me measured CC50 at 72 h for CCCCOC(=O)[C@H](C)NP(=O)(OC[C@H]1O[C@@H](n2ccc(=O)[nH]c2=O)[C@@]2(CCO2)[C@@H]1O)Oc1ccccc1 (stereo partly drawn) please.
> 100 µM

* * *

- ASSAY_REMARKS: Tmax in rat plasma at 50 mg/kg, po
- Type: ADME, organism-based
OUTCOME_MEASURE: Tmax (min)
Express your answer in min, writing the number without its unit.

Tell me measured Tmax for CC(C)O[P@@]1(=O)OC[C@H]2O[C@@H](n3ccc(=O)[nH]c3=O)[C@@]3(CCO3)[C@@H]2O1 please.
30

* * *

- ASSAY_REMARKS: AUC (0 to infinity) in dog plasma at 50 mg/kg, po
- Format: ADME, organism-based, Canis lupus familiaris
- Parameters: dose 50 mg/kg, time infinity, route oral
OUTCOME_MEASURE: AUC(0-inf) (ng·h/mL)
Express your answer in ng·h/mL, writing the number without its unit.

Tell me measured AUC(0-inf) for CC(C)O[P@@]1(=O)OC[C@H]2O[C@@H](n3ccc(=O)[nH]c3=O)[C@@]3(CCO3)[C@@H]2O1 please.
29100

* * *

- ASSAY_REMARKS: Cmax in dog plasma at 50 mg/kg, po
- Type: ADME, organism-based, Canis lupus familiaris
- Design: dose 50 mg/kg, route oral
OUTCOME_MEASURE: Cmax
Number plus unit, in that order.

Tell me measured Cmax for CC(C)O[P@@]1(=O)OC[C@H]2O[C@@H](n3ccc(=O)[nH]c3=O)[C@@]3(CCO3)[C@@H]2O1 please.
4650 ng/mL

Value source: ChEMBL document CHEMBL3826882
